FYI, the data here is from PubChem BioAssay (NCI).

test system: HCT-15 colon; assay: NCI-60 one-dose screen, 48 h; conditions: 10 µM unless noted
The panel holds about 83,000 compounds, 20% with a hit somewhere; the sample as a whole holds those more often. Activity calls are given as the source filed them. The calls were made as follows: active = growth percent below 10; inactive = the rest.
Outcomes: active, inactive

# Molecule, Assay target, Class name
records = [
    ("O=c1[nH]nc(-c2ccc(Br)cc2)c2sc(NC(=S)Nc3ccc(Cl)cc3)nc12", "HCT-15 colon", "inactive"),
    ("O=[N+]([O-])c1ccc(Oc2ccc(-c3ccccc3)cc2)cc1", "HCT-15 colon", "inactive"),
    ("O=C(Nc1nc(-c2ccccc2Cl)cs1)c1cc(-c2ccc(Br)cc2)nc2ccccc12", "HCT-15 colon", "inactive"),
    ("O=C(O)c1cn(C2CC2)c2cc(N3CCN(Cc4nnc(Nc5ccccc5)o4)CC3)c(F)cc2c1=O", "HCT-15 colon", "inactive"),
    ("COc1cc(-c2csc(NC(=O)Nc3cc(Cl)cc(Cl)c3)n2)cc(OC)c1OC", "HCT-15 colon", "inactive"),
    ("CCc1ccc(OCc2ccccc2C(=O)Nc2ccc3nc(C)cc(N)c3c2)cc1", "HCT-15 colon", "active"),
    ("COc1cc(NC(=O)Nc2cnc(Nc3ccc(N4CCOCC4)cc3)nc2Oc2ccc(F)cc2)cc(OC)c1", "HCT-15 colon", "inactive"),
    ("NS(=O)(=O)c1ccc(-n2nc(-c3ccccc3)ccc2=O)cc1", "HCT-15 colon", "inactive"),
    ("Nc1c(C(=O)Nc2ccccn2)sc2nc3c(cc12)CCCCC3", "HCT-15 colon", "inactive"),
    ("C=CCn1c(CN2CCN(c3cc4c(cc3F)c(=O)c(C(=O)O)cn4C3CC3)CC2)n[nH]c1=S", "HCT-15 colon", "inactive"),
    ("C=C(C)[C@@H]1CC[C@]2(C(=O)O)CC[C@]3(C)[C@H](CC[C@@H]4[C@@]5(C)C[C@@H](CC#Cc6ccc(Cl)cc6)C(=O)C(C)(C)[C@@H]5CC[C@]43C)[C@@H]12", "HCT-15 colon", "inactive"),
    ("NC(=O)c1ccc(C2C3=C(CCCC3=O)OC3=C2C(=O)c2ccccc2C3=O)cc1 (stereo not drawn)", "HCT-15 colon", "inactive"),
    ("C#CCN1C(=O)c2ccccc2N(CC#C)C12CCN(Cc1cn(CC(=O)Nc3ccccc3C(N)=O)nn1)CC2", "HCT-15 colon", "inactive"),
]
